# Experimental Protocol: Kinetics analysis of interaction between streptavidin protein and biotin using Biacore biosensor
# Type: binding
# Condition Context: Biacore 3000, obtained from kd/ka; read-out: Dissociation constant Kd
Measured Quantity: pKd
Convention used: pKd is expressed as -log10 of the molar concentration.

For orientation, consider the following solved cases.
[
  {
    "Molecule": "mcSA414: mutant core streptavidin with Y22S, Y83S, R84K, E101D, R103K, E116Q (protein) core streptavidin subunit: AEAGITGTWSNQLGSTFIVTAGADGALTGTYESAVGNAESRYVLTGRYDSAPATDGSGTALGWTVAWKNNSKNAHSATTWSGQYVGGADAKINTQWLLTSGTTQANAWKSTLVGHDTFTKVKPSAAS",
    "Reported Value": 9.61
  },
  {
    "Molecule": "mcSA020: mutant core streptavidin with Y83A, R84K, E116Q (protein) core streptavidin subunit: AEAGITGTWYNQLGSTFIVTAGADGALTGTYESAVGNAESRYVLTGRYDSAPATDGSGTALGWTVAWKNNAKNAHSATTWSGQYVGGAEARINTQWLLTSGTTQANAWKSTLVGHDTFTKVKPSAAS",
    "Reported Value": 9.37
  },
  {
    "Molecule": "mcSA124: mutant core streptavidin with Y22T, Y83A, R84K, E101D, R103K, E116N (protein) core streptavidin subunit: AEAGITGTWTNQLGSTFIVTAGADGALTGTYESAVGNAESRYVLTGRYDSAPATDGSGTALGWTVAWKNNAKNAHSATTWSGQYVGGADAKINTQWLLTSGTTNANAWKSTLVGHDTFTKVKPSAAS",
    "Reported Value": 9.75
  },
  {
    "Molecule": "mcSA324: mutant core streptavidin with Y22T, Y83S, R84K, E101D, R103K, E116N (protein) core streptavidin subunit: AEAGITGTWTNQLGSTFIVTAGADGALTGTYESAVGNAESRYVLTGRYDSAPATDGSGTALGWTVAWKNNSKNAHSATTWSGQYVGGADAKINTQWLLTSGTTNANAWKSTLVGHDTFTKVKPSAAS",
    "Reported Value": 9.66
  },
  {
    "Molecule": "mcSA224: mutant core streptavidin with Y22T, Y83A, R84K, E101D, R103K, E116Q (protein) core streptavidin subunit: AEAGITGTWTNQLGSTFIVTAGADGALTGTYESAVGNAESRYVLTGRYDSAPATDGSGTALGWTVAWKNNAKNAHSATTWSGQYVGGADAKINTQWLLTSGTTQANAWKSTLVGHDTFTKVKPSAAS",
    "Reported Value": 9.32
  },
  {
    "Molecule": "mcSA424: mutant core streptavidin with Y22T, Y83S, R84K, E101D, R103K, E116Q (protein) core streptavidin subunit: AEAGITGTWTNQLGSTFIVTAGADGALTGTYESAVGNAESRYVLTGRYDSAPATDGSGTALGWTVAWKNNSKNAHSATTWSGQYVGGADAKINTQWLLTSGTTQANAWKSTLVGHDTFTKVKPSAAS",
    "Reported Value": 9.07
  }
]

Sure, the documented pKd for mcSA114: mutant core streptavidin with Y22S, Y83A, R84K, E101D, R103K, E116N (protein) core streptavidin subunit: AEAGITGTWSNQLGSTFIVTAGADGALTGTYESAVGNAESRYVLTGRYDSAPATDGSGTALGWTVAWKNNAKNAHSATTWSGQYVGGADAKINTQWLLTSGTTNANAWKSTLVGHDTFTKVKPSAAS is 9.56

Sure, the documented pKd for mcSA314: mutant core streptavidin with Y22S, Y83S, R84K, E101D, R103K, E116N (protein) core streptavidin subunit: AEAGITGTWSNQLGSTFIVTAGADGALTGTYESAVGNAESRYVLTGRYDSAPATDGSGTALGWTVAWKNNSKNAHSATTWSGQYVGGADAKINTQWLLTSGTTNANAWKSTLVGHDTFTKVKPSAAS is 9.58
